Where do these numbers come from? They come from patent US20080058263A1.

Molecular target: T1, VEGFR-2-Fc (UniProt P35968 20-322)
T1 construct: domain: first 3 Ig domains; conditioned supernatant of 293T cells; also called VEGFR-2-Fc fusion protein; not shown: Fc fragment of the pIg vector
T1 sequence (P35968 20-322): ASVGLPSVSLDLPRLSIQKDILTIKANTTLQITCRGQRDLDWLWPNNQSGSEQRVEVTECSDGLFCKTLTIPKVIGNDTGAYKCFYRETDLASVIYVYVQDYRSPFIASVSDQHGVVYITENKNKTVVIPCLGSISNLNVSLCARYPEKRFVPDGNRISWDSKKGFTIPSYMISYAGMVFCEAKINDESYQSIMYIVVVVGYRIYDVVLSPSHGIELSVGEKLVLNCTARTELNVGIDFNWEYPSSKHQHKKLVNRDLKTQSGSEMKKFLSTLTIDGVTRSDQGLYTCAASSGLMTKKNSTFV
Assay: receptor-Fc IP
Source text: The binding assay procedure was identical to the immunoprecipitation using pentahistidine antibody described in Example 2, apart from the composition of the immunoprecipitation (IP) mixes. […]
Reported Metric: binding result

Ask: What does the record list as binding result for 63-11 (ligand) GQNHHEVVKFMDVYQRSYCHPREVCIDVGKEYPDEIEYIFKPPCVSVYRCGGCCNSEGLQCVPTEESNITMQIMRITVPLSQGPKPVTISFLQHNKCECRPKKD ?
Result: no binding

Ask: What does the record list as binding result for 23-11 (ligand) AHYNTEILKSIDNEWRKTQCMPREVCIDVGKEYPDEIEYIFKPPCVSVYRCGGCCNSEGLQCVPTEESNITMQIMRITVPLSQGPKPVTISFLQHNKCECRPKKD ?
Result: no binding

Ask: What does the record list as binding result for 11-1 (ligand) GQNHHEVVKFMDVYQRSYCHPIETLVDIFQEYPDEIEYIFKPSCVPLMRCGGCCNDEGLECVPTEESNITMQIMRIKPHQGQHIGEMSFLQHNKCECRPKKDLVFEQKLISEEDLNSAVDHHHHHH ?
Result: binds

Ask: What does the record list as binding result for 43-1 (ligand) AHYNTEILKFMDVYQRSYCHPREVCIDVGKEYPDEIEYIFKPPCVSVYRCGGCCNDEGLECVPTEESNITMQIMRIKPHQGQHIGEMSFLQHNKCECRPKKD ?
Result: no binding
